# assayed_target: T1, fragment DIR-II (last 27 amino acids of the sequence encoded by the retained intron of DIR) (human)
# T1 construct: also called target fragment DIR-II
# T1 peptide: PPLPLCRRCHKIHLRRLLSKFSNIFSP
# experiment_summary: ELISA, DIR-II coated; mAb (1 mg/mL) diluted 1:486k
The entries below come with measured absorbance at 450 nm values attached.

DIR antibody IR-II-2 (antibody, V domains shown, Monoclonal antibody) VH: EVQLQQSGAELMKPGASVKISCKATGYTFSSYWIEWVKQRPGHGLEWIGEILPGSGTTNYNEKFKGKATFTVDTSSNTAYMQLSSLTSEDSAVYYCARSGVITARGDYYAMDYWGQGTSVTVSS VL: DIVMTQSPASLAVSLGQRATISCKASQSVDYDGDSYMNWYQQKPGQPPKLLIYAASNLDSGIPARFSGSGSGTDFTLNIHPVEEEDAATYYCQQSNEDPRTFGGGTKLEIK ... 0.112 absorbance (450 nm)

Consider the additional binder presented here.
QUERY: // Input: DIR antibody IR-II-1 (antibody, V domains shown, Monoclonal antibody) VH: QVQLKESGAELMKPGASVKISCKATGYTFSSYWIEWVKQRPGHGLEWIGEILPGSGTTNYNDKFKGKATFTADTSSNTAYMQLSNLTSEDSAVYYCARSYDGYYVFDYWGQGTTLTVSS VL: DIELTQSPASLAVSLGQRATISCKASQSVDYDGDSYMNWYQQKPGQPPKLLIYAASNLESGIPARFSGSGSGTDFTLNIHPVEEEDAATYYCQQSNEDPRTFGGGTKLEIK . Output its absorbance at 450 nm only.
RESULT: 0.0656 absorbance (450 nm)
